Reference for the values: paper PMC3909768

test: Rat pharmacokinetics; details: male, Sprague Dawley, rat, in vivo, po, 100 mg/kg
recordedMetric: k el (s⁻¹)
Please give a number only; it is taken to be in s⁻¹.

Entry CNC(=O)c1ccc(N2C(=S)N(c3ccc(C#N)c(C(F)(F)F)c3)C(=O)[C@]23CCOC3)cc1F [ONC1-13B] — recorded k el = 2.5e-05

###

The molecules listed here are annotated with their concentration at 30 min.
assay: Brain and prostate distribution after single IV in rats; conditions: rat, in vivo, 2 mg/kg, plasma, 30 min, single IV 2 mg/kg
Please give a number only; it is taken to be in ng/mL.

>  <molecule>
CNC(=O)c1ccc(N2C(=S)N(c3ccc(C#N)c(C(F)(F)F)c3)C(=O)C2(C)C)cc1F [MDV3100]

>  <unitsLabel>
ng/mL

>  <number>
263

$$$$

Next molecule, please.
Entry CNC(=O)c1ccc(N2C(=S)N(c3ccc(C#N)c(C(F)(F)F)c3)C(=O)[C@]23CCOC3)cc1F [ONC1-13B] — recorded concentration at 30 min = 746

###

experiment: Rat pharmacokinetics; conditions: male, Sprague Dawley, rat, in vivo, po, 300 mg/kg
recordedMetric: Cmax (ng/mL)
Please give a number only; it is taken to be in ng/mL.

Entry CNC(=O)c1ccc(N2C(=S)N(c3ccc(C#N)c(C(F)(F)F)c3)C(=O)[C@]23CCOC3)cc1F [ONC1-13B] — recorded Cmax = 20500

###

assay: Brain and prostate distribution after single IV in rats; conditions: rat, in vivo, 2 mg/kg, Prostate, 120 min, single IV 2 mg/kg
The compounds listed here are annotated with their concentration at 120 min.
Please give a number only; it is taken to be in ng/g.

>  <compound>
CNC(=O)c1ccc(N2C(=S)N(c3ccc(C#N)c(C(F)(F)F)c3)C(=O)[C@]23CCOC3)cc1F [ONC1-13B]

>  <concentration at 120 min [ng/g]>
625

$$$$

Entry CNC(=O)c1ccc(N2C(=S)N(c3ccc(C#N)c(C(F)(F)F)c3)C(=O)C2(C)C)cc1F [MDV3100] — recorded concentration at 120 min = 124

###

assay: Rat pharmacokinetics; details: male, Sprague Dawley, rat, in vivo, po, 5 mg/kg
recordedMetric: k el (s⁻¹)
Please give a number only; it is taken to be in s⁻¹.

Entry CNC(=O)c1ccc(N2C(=S)N(c3ccc(C#N)c(C(F)(F)F)c3)C(=O)[C@]23CCOC3)cc1F [ONC1-13B] — recorded k el = 3.61e-05

###

assay: Brain and prostate distribution after single IV in rats; details: rat, in vivo, 1 mg/kg
recordedMetric: Kp at 120 min
Form: value (number only, do not type unit).

Entry CNC(=O)c1ccc(N2C(=S)N(c3cnc(C#N)c(C(F)(F)F)c3)C(=O)C23CCC3)cc1F — recorded Kp at 120 min = 3.15

###

experiment: Brain and prostate distribution after single IV in rats; details: rat, in vivo, 1 mg/kg, Prostate, 30 min, single IV 1 mg/kg
recordedMetric: concentration at 30 min (ng/g)
Please give a number only; it is taken to be in ng/g.

Entry CNC(=O)c1ccc(N2C(=S)N(c3cnc(C#N)c(C(F)(F)F)c3)C(=O)C23CCC3)cc1F — recorded concentration at 30 min = 487
